Test: label from the status in PepcDB records
quantity: protein production

* MVVVTGREPDSRRQDGAMSSSDAEDDFLEPATPTATQAGHALPLLPQEFPEVVPLNIGGAHFTTRLSTLRCYEDTMLAAMFSGRHYIPTDSEGRYFIDRDGTHFGDVLNFLRSGDLPPRERVRAVYKEAQYYAIGPLLEQLENMQPLKGEKVRQAFLGLMPYYKDHLERIVEIARLRAVQRKARFAKLKVCVFKEEMPITPYECPLLNSLRFERSESDGQLFEHHCEVDVSFGPWEAVADVYDLLHCLVTDLSAQGLTVDHQCIGVCDKHLVNHYYCKRPIYEFKITWW | failed
* MSTQDERQINTEYAVSLLEQLKLFYEQQLFTDIVLIVEGTEFPCHKMVLATCSSYFRAMFMSGLSESKQTHVHLRNVDAATLQIIITYAYTGNLAMNDSTVEQLYETACFLQVEDVLQRCREYLIKKINAENCVRLLSFADLFSCEELKQSAKRMVEHKFTAVYHQVAFMQLSHDLLIDIFSSDNLNVEKEETVREAAMLWLEYNTESRSQYLSSVLSQIRIDALSEVTQRAWFQGLPPNDKSVVVQGLYKSMPKFFKPRLGMTKEEMMIFIEASSENPCSLYSSVCYSPQAEKVYKLCSPPADLHKVGTVVTPDNDIYIAGGQVPLEKHKNKSQ | failed
* MAICKVFRNYCKENDIQLHQANFSLSYDTNIPRQTGLSGSSAIVSAALNCLLDFYNVRHLIKVQVRPNIVLSAEKELGIVAGLQDRVAQVYGGLVHMDFSKEHMDKLGHGIYTPMDISLLPPLHLIYAENPSDSGKVHSMVRQRWLDGDEFIISSMKEVGSLAEEGRTALLNKDHSKLVELMNLNFDIRRRMFGDECLGAMNIEMVEVARRVGAASKFTGSGGAVVVFCPEGPSQVKLLEEECRKAGFTLQPVKIAPSCLNDSDIQTL | failed

====

Assay: label from the status in PepcDB records
quantity: protein production

* MSVLIYVESNGSEIKKSSMDAVAYGTQVASKLGGSAIVVAIGNIPQEQLTALGNFGASKVLHVTGDAFNQNAPLASAAAVVEAAKKAGAKVIVLPKSTLVDSFAPKLASQLKAGVVTNVTELPDTSAGFQVKRSIFTGKAFATVSINTDIKVITLAKNAYQGTETGGTAAVEALSVSLTDADTKVKTTNVEKMSGELLLTEAEIVVSGGRGLKGPENWGVLLDLAKALGAATGCSKPVSDMDWRPHHEHVGQTGVKVAPNLYIAVGISGAIQHLAGVNSSKCIVVINKDPEAPFFKAADYGIVGDLFEVLPKLTEAAKLLK | failed
* MICCLGPRGSYSEKAAVTFSKAINDSEIQFEDSIYNVFKAVETNPEFFGVVPSENSIGGSVSITQDLLLEFPVKILGEVDISINHCLLGYDIKKVTEVLAHPQALAQCGHYITKNNWNITPVDSNAKAAKIVSEEKDEKLAAICGVENAEIYGLNVLDEYIQDFKNNTTRFFLICNKNK | failed
* MVKNGQSKRQPWVKNLYSNREYPDNYTDASFLKDLRTNLHCRIYTFGEAIAGITVLNNQISCITGFLILYQLMLSDSVSPTTILVPSCGITGIGYLCYRGRSLSWALLGEDSKTLVTVVLFGYLFSPMLHTLTQAISTDTIYTMTFFVLLGNLIFGHYGLDVAMVSKVGNIYGYWSQAVSLNAAIFGAICLASRLPTSYHAFVLLVEAAVFFVLYPIMTEANWHAGFMLPIFAICCMALYCISRPVLYLYASTTIFINFVCPFIFVWQQQYKFNIHGPWDEAIVEENTEENLDGNL | failed

====

Experiment: label from the status in PepcDB records
quantity: protein production

* MNNQEKNMLGFNQDEYLTSAREIIAARQKAEQVADEIYQAGFSSLFFASVGGSLAPMMAINEFAKELTTLPVYVEQAAELIHKGNKRLNKDSVVITLSKSGDTKESVAIAEWCKAQGIRVVAITKNADSPLAQAATWHIPMRHKNGVEYEYMLLYWLFFRVLSRNNEFASYDRFASQLEILPANLLKAKQKFDPQADAIASRYHNSDYMMWVGGAEMWGEVYLFSMCILEEMQWKRTRPVSSAEFFHGALELLEKDVPLILVKGEGKCRALDERVERFASKITDNLVVIDPKAYALDGIDDEFRWIMAPCVVSTLLVDRLAAHFEKYTGHSLDIRRYYRQFDY | not failed
* MSIESDMIHVEVVYALPHEQRVFNLVVNNHATVEEIIRQSGVLELYPEIDLAKNKVGVFSRNVKLDATVRDKDRIEIYRPLLADPKEIRRKRAEQAKAAGNADPVTGGKPNALRK | failed
* MVFTLADSVSQVALGPSWLDPMELLSGSGPFGSFILPAMLAIVFIESGLLFPLLPGDSLLFTGGLLANQADPFAPLWLVLILCPIAAILGDQVGYWIGHKFHPRLVNRPDGRIFKQEYLKQTEDFFEKHGPVTIILCRFVPIVRTYAPLVAGMAGMRYRTFIIYNMIGGILWGSGVVALGAALGQFDFVRNNIDLIFLLIVFISVVPGLVGMARKLADGHKQANTEPQENPAVQTAPVKTQEAQEAPQN | failed
* QIAAVDPAGMSVIRDRNQLFRVNSAGEVENTYTLKVINKTQQVQEYNLDVKGLNDVSWYGKQTIQVEPGEVLNLPMSLGADPDKLNSAITTIQFILTDKSNEFTIEVESRFIKKL | not failed
* MTERSFEGSAYSDYRSSHQKPGYGTDYAETFRSGYYAALWSRIERPLVEGILSPLGGPGRSCLDFACGTGRVAAVAGPLFGEVVGVDVSRSMLACARVPGNVKLVEADLTVAPLSRRFDVVTAFRFFLNAEDTLKRDALSAIHEHLNDGGLLVSNVHMNATSPMGLACRFLNRFQGRVVRSTLSIHAYRQMLVSNGFVVESVIGYGFLPRPGWLLPRLCETLVGPVETICRRAGVPGRFAQNFLVVARKQ | failed

Need protein production for each of these sequences.
1. MFVRSHCLEVTNLRKWFYYFNRRNKRMQWLKVILAGFIEIIWVTGLDQAHSLFTWIFTLFFIALSFFLVIDASKHLPVGTVYAFFVGIGAVGTVLVDMIFFNQPFTFTKIFLIMTLILGIIGLKLTTDATKEGR
2. MSSTSPNLQKAIDLASKAAQEDKAGNYEEALQLYQHAVQYFLHVVKYEAQGDKAKQSIRAKCTEYLDRAEKLKEYLKNKEKKAQKPVKEGQPSPADEKGNDSDG
3. MKTNEVLETIKARRSVRAYDRKQIPADDLNAILEAGAYAPSGMHYETWHFTAVCNTVKLEELNERIKGAFAKSDDKHLRERGHSETYCCYYHAPTLVIVSNEPKQWWAGMDCACAIENMFLAATSLGIASCWINQLGTTCDDPEVRAYLTSLGVPENHKVYGCVALGYKAEGALLKEKTVKAGTITIVE
4. MELTTDIGGRSAAGVDRAPAGATSRTALWTGRVLSGLAIAFLAFDALGKLMRAAPVLEGSQQLGYPLDTVVGIGATLLACVVLYAIPRTAALGAILLTGYLGGAVATHVRVGNPLFSHVLFPTYVGALIWGGLVLRDRRLLAALLRGRARAAEEEA
5. MKHTIGILGGMGPAATADMLEKFVELRHASCDQQHIPLIVSSIPDIPDRTACLLSGGPSPYRYLERYLHMLEDAGAECIVIPCNTAHYWFDDLQNVAKARMISILDATLGDIPPSARHVGLLATNATLATGLYQKKALARGLTLIQPEDAGQALVMQAIYTLKRGDKTAAQALLLPQIDSLIARGAQAIIMGCTEIPLIVAGHERAIACPMIDSTASLVRAAIRWYESWPDTRASLTGEQRLTA

Result:
1. failed
2. not failed
3. not failed
4. failed
5. not failed

Need protein production for each of these sequences.
1. MATIDLVRHAEPDITIHDDFLRPLTSAGQRQTQQLVDSLHQYPYTAFFSSPLKRAVDTITPIADDHGLPVQKNELLVERKMPAWLPNFSDYVNQQWQDLTFFEKPGESIHQVQERYLSFLYGLPSSAFVAVGSHGTAISSLVEAAIPGIGYHFFSKLGYAAVTRIEMHAGNMVHLAVWEPKSKTFKVLK
2. MSSNIAVVGDRDTVTGFRLGGVREGYVVETPDEAEETIRNLIRDGFSIIIVTEKIGDELREFIEETTSSSALPMIIEIPDKTGPSERETDPLRDLIKRVIGVEMVK
3. MSNENKTIHDFELNLICDFFSNMERQGPGSPEVTLKALSFIDNLTEKSLIADIGCGTGGQTMVLAGHVTGQVTGLDFLSGFIDIFNRNARQSGLQNRVTGIVGSMDDLPFRNEELDLIWSEGAIYNIGFERGLNEWRKYLKKGGYLAVSECSWFTDERPAEINDFWMDAYPEIDTIPNQVAKIHKAGYLPVATFILPENCWTDHYFTPKVAAQKIFLTKYAGNKIAEEFSMLQSIEEELYHKYKEYYGYTFFIAKKIRLLEHHHHHH
4. MILSRYIARRFLRMVFIVFLAFFGLMMLIDVLDQMRRFSDEGITLVQAGLLSLLRVPATLYTILPLIVILAAVALFLGLARSSELVVVRAAGRSGLRFLVAPMVVALALGTVAVTVLNPIVAGTSRQYDAAAGRLARGEASILSISKEGLWLRQGGSGEQTVIHALRSNTDGTRLYAVTFLTFDAEGRPTGRIAAEQAALERGYWQLSGAKSWDLTEANPEARAGLPGNLRVTSELTREGIQDSFGDPSAIPIWELPAYVAGLERAGFSARKHRVWMQMEFALPATLAAMVLVAAGFTMRHSRFGGTGRMVLLALLGGFSLFFLRNFAQVLGENGQIPILLAAWSPPLIGVMGSLGLLLHLEDG

Result:
failed
failed
not failed
failed

Values were extracted from a protein production outcome set (Wang et al. 2014).
